target: RIPK1 (recombinant GST-RIPK1 kinase domain, residues 1-327) (Homo sapiens (Human)); assay: RIPK1-ADP-Glo Enzymatic Assay; type: biochemical; conditions: ADP-Glo; 25 nM GST-RIPK1, 300 μM ATP; assay lower limit ~25 nM; read-out: RIPK1 V0 Ec50
pEC50: −log10 of the molar value.
REPORTED_METRIC: pEC50

Study these solved cases before continuing.
[
  {
    "COMPOUND": "N#Cc1cnn2c(N3CCC4(CC3)O[C@@H]3CC[C@@H](c5ccccc5)N3C4=O)ncnc12 [Example 4.218]",
    "RECORDED_RESULT": "> 7.60"
  },
  {
    "COMPOUND": "O=C(c1cc(Cl)ccc1F)N1CCC2(CC1)O[C@@H]1CC[C@@H](c3cc(F)cc(F)c3)N1C2=O [Example 5.61]",
    "RECORDED_RESULT": "> 7.60"
  }
]

Could you now consider this next compound?
Report measured pEC50; entry is COc1ccc(F)c(C(=O)N2CCC3(CC2)O[C@@H]2CC[C@@H](c4cc(F)cc(F)c4)N2C3=O)c1 [Example 6.6]
> 7.60

----------
target: RIPK1 (recombinant GST-RIPK1 kinase domain, residues 1-327) (Homo sapiens (Human), UniProt Q13546); test: RIPK1-ADP-Glo Enzymatic Assay; type: biochemical; settings: ADP-Glo; 25 nM GST-RIPK1, 300 μM ATP; assay lower limit ~25 nM; read-out: RIPK1 V0 Ec50
Sequence (Q13546 1-327): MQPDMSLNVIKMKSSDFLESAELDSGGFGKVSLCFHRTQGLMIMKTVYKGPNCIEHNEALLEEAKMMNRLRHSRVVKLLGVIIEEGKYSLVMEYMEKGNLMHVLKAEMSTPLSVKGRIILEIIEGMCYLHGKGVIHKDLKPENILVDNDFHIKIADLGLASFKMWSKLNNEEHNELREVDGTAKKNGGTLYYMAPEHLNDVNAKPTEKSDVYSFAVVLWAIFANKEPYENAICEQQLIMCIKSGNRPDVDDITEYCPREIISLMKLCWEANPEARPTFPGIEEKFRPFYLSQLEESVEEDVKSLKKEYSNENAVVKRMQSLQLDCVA
REPORTED_METRIC: EC50

The cases that follow already have their EC50 on record.
[
  {
    "COMPOUND": "O=C1N2[C@@H](CC[C@H]2c2ccccc2)OC12CCN(c1ncnc3c(F)cnn13)CC2",
    "EC50": "< 25 nM"
  },
  {
    "COMPOUND": "N#Cc1ccc(N2CCC3(CC2)O[C@@H]2CC[C@@H](c4ccccc4F)N2C3=O)n2ncnc12",
    "EC50": "< 25 nM"
  },
  {
    "COMPOUND": "CC1CN(C(=O)c2ccccc2)CCC12O[C@@H]1CC[C@@H](c3cc(F)cc(F)c3)N1C2=O (stereo partly drawn) [Example 6.109]",
    "EC50": "< 25 nM"
  }
]

Please give the documented EC50 of O=C1N2[C@@H](CC[C@H]2c2ccccc2F)OC12CCN(c1ccnc(-c3cnn(C(F)F)c3)c1)CC2
< 25 nM

Give the reported EC50 for this compound. Cc1ccc(C(=O)N2CCC3(CC2)O[C@@H]2CC[C@@H](c4cc(F)cc(F)c4)N2C3=O)s1
< 25 nM

Please list EC50 recorded for the compound O=C1N2[C@@H](CC[C@H]2c2ccccc2)OC12CCN(c1ccc(Br)n3ncnc13)CC2
< 25 nM

Supply recorded EC50 for COc1ccnc(N2CCC3(CC2)O[C@@H]2CC[C@@H](c4cc(F)cc(F)c4)N2C3=O)n1 here.
35.5 nM

Tell us which EC50 value is on record for COc1cccc([C@@H]2CC[C@H]3OC4(CCN(c5cc(C#N)ncn5)CC4)C(=O)N32)c1
394 nM

Please give measured EC50 of the following entry: O=C(c1ccccc1)N1CCC2(CC1)O[C@@H]1CC[C@@H](c3ccccc3F)N1C2=O
< 25 nM

Determine its reported EC50: O=C(c1ccccc1)N1CCC2(CC1)O[C@@H]1CC[C@@H](c3ccc4sccc4c3)N1C2=O
26.1 nM

Return EC50 (reported value) for this compound: NC(=O)c1ccc(N2CCC3(CC2)O[C@@H]2CC[C@@H](c4cccc(F)c4)N2C3=O)n2ncnc12
< 25 nM

Quick one: give measured EC50 for O=C(c1ccccc1F)N1CCC2(CC1)O[C@@H]1CC[C@@H](c3ccccc3F)N1C2=O
< 25 nM
